The measurements presented in this section are drawn from the supplement of paper PMC7877785.

Recorded self-splicing fitness (ln) for the following sequences
assay: self-splicing fitness, log relative to wild type (ln ratio); higher = more splicing; Tetrahymena group I intron in knt gene, E. coli kanamycin selection, DiMSum; sequences stand for … in CUCUCU…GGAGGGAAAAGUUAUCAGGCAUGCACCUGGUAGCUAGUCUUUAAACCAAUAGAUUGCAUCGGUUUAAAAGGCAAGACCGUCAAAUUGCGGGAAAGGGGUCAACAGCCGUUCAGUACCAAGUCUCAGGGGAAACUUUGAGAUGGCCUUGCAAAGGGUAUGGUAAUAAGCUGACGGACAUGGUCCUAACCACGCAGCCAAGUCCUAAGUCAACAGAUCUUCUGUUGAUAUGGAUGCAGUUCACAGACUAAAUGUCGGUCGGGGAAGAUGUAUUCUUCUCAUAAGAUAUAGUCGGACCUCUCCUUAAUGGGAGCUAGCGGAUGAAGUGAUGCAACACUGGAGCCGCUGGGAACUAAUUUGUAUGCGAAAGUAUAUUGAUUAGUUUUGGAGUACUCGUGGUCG; conditions: 30 °C;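 further: selection with 25 µg/mL kanamycin versus none on LB agar overnight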

| residueCodes | self-splicing fitness (ln) |
| --- | --- |
| GUUGAGCAAUAUUACGACCU | -2.63 |
| CUGGAGCAAUAUUACGUGAC | -1.85 |
| GGUAAGCAAUAUUACGCAGC | -0.901 |
| UAUAAGCAAUAUUACGGUAU | -3.16 |
| CCGCAGCAAUAUUACGCCGU | -3.34 |
| AACCAGCAAUAUUACGGGGA | -2.46 |
| UGUCAGCAAUAUUACGUCCA | -0.159 |
| CAGAAGCAAUAUUACGAUAU | -3.56 |
| UUCCAGCAAUAUUACGCAUC | -3.6 |
| UUGGAGCAAUAUUACGUUCG | -2.23 |

Next:
query: Record request: self-splicing fitness (ln) value, item ACAGAGCAAUAUUACGAUAG
result: -2.78
